# assayedTarget: T315I BCR-Abl (Homo sapiens, UniProt P00519, T315I)
# Construct: the other entry of the earlier key: BCR (P11274, Breakpoint cluster region protein)
# Sequence (P00519 229-512 T315I limits assumed): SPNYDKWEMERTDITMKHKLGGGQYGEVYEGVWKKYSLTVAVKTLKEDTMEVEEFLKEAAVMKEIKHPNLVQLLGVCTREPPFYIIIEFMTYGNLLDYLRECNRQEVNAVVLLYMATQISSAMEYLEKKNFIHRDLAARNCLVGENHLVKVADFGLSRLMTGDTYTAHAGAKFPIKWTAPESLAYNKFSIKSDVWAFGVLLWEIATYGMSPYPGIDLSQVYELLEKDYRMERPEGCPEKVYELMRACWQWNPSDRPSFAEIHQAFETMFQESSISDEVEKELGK
# methodNotes: Antiproliferative effect on Ba/F3 cells expressing T315I BCR-Abl
# measurementParameters: Ba/F3 cells expressing T315I mutant
attributeMeasured: IC50 (nM)

(P) Cc1cn(-c2cc(C(=O)Nc3ccc(C)c(NC(=O)n4ccc5c(Nc6cccc(C(N)=O)c6)ncnc54)c3)cc(C(F)(F)F)c2)cn1 [Example 7]
(Q) Cc1cn(-c2cc(C(=O)Nc3ccc(C)c(NC(=O)n4ccc5c(Nc6cccc(N(C)C)c6)ncnc54)c3)cc(C(F)(F)F)c2)cn1 [Example 3]
Hi, I'm comparing P with Q and wondering which one has the bigger number for IC50. Any idea? Reply with the label of the item you choose. Q
(Q: 370 nM, P: 115 nM)
